- Tested on: HOP-92 NSCLC
- PROTOCOL_NOTES: NCI-60 one-dose screen, 48 h
- CONDITION: 10 µM
About 83,000 compounds went through this panel and 20% of them were active in at least one assay; those are over-represented in the sample as a whole. Calls of active or inactive are those of the source. How the source made its calls: active means growth percent below 10; inactive means the rest.
Classes used: 1 for active, -1 for inactive

1. CCc1ccc(C2=NN(c3ccc(S(C)(=O)=O)cc3)C(=O)CC2)cc1 = -1
2. COC(=O)C1OC1c1cc([N+](=O)[O-])ccc1OC (configuration not stated) = -1
3. COc1cc2cc(Oc3ccc(NC(=O)Nc4ccc(Cl)c(C(F)(F)F)c4)cc3)c(C)nc2cc1OC = 1
4. CSc1nc(S(C)(=O)=O)nc2[nH]c(=O)[nH]c12 = -1
5. O=C(/C=C/c1cccc(B(O)O)c1)c1cccc(B(O)O)c1 = -1
6. CCCCN(CCCC)C(=O)[C@H](CC)[C@@H]1CC[C@@H](C)[C@@H]([C@H](C)[C@@H](O)[C@@H](C)C(=O)[C@H](CC)C2O[C@]3(C=C[C@@H](O)[C@]4(CC[C@@](C)([C@H]5CC[C@](O)(CC)[C@H](C)O5)O4)O3)[C@H](C)C[C@@H]2C)O1 (some centres not stated) = 1
7. COc1cc(Cc2cc(-c3ccccc3)n[nH]c2=O)cc(OC)c1OC = -1
8. CCn1c(SCc2ccc(C)cc2)nnc1-c1nn(-c2ccc(Cl)cc2Cl)c(-c2ccc(Cl)cc2)c1C = 1
9. CC[N+](CC)=c1ccc2nc3c(cc(NCc4ccccc4)c4ccccc43)oc-2c1 = 1
10. COc1ccc(-c2nn(-c3cccc(Cl)c3)cc2-c2nc(N)[nH]c(=O)c2C#N)cc1 = -1
11. CC1CCCC(C(=O)O)C1C(=O)O (configuration not stated) = -1
12. COc1ccc(-c2nn(-c3cccc(Cl)c3)cc2-c2c(C#N)c(=O)n3[nH]c(-c4ccc(C)cc4)nc3c2C#N)cc1 = -1
13. CNC(=O)c1cn2c3c(c(N4CCN(C)CC4)c(F)cc3c1=O)OC[C@@H]2C = -1
14. CC[C@@H]1NC(=O)[C@H]([C@H](O)[C@H](C)C/C=C/c2ccc(CN3C(=O)CCCC3=O)cc2)N(C)C(=O)[C@H](C(C)C)N(C)C(=O)[C@H](CC(C)C)N(C)C(=O)[C@H](CC(C)C)N(C)C(=O)[C@@H](C)NC(=O)[C@H](C)NC(=O)[C@H](CC(C)C)N(C)C(=O)[C@H](C(C)C)NC(=O)[C@H](CC(C)C)N(C)C(=O)CN(C)C1=O = -1
15. C/C=C/CSC(C)(C)C(=O)NC = -1
16. CCn1cc(C(=O)O)c(=O)c2cc(F)c(N3CCNCC3)cc21 = -1
17. O=C(/C=C/C=C/c1c(C2CC2)nc2ccccc2c1-c1ccc(F)cc1)c1cccs1 = 1
18. S=C(NCc1ccccc1)NCc1ccccc1 = -1
19. NS(=O)(=O)c1ccc(Br)cc1 = -1
20. CC[C@@H](C(=O)[C@@H](C)[C@@H](O)[C@H](C)[C@@H]1O[C@@H]([C@@H](CC)C(=O)O)CC[C@@H]1C)C1O[C@]2(C=CC(=O)[C@]3(CC[C@@](C)([C@H]4CC[C@](O)(CC)[C@H](C)O4)O3)O2)[C@H](C)C[C@@H]1C (some centres not stated) = -1
21. O=C(CCCCCCC(=O)Nc1ccccc1)NO = 1
22. COc1ccc2c(c1)C(=O)/C(=C/c1cccc(OCC(=O)c3ccc([N+](=O)[O-])cc3)c1)CO2 = -1
23. O=C1c2ccccc2C(=O)c2c1ccc(C(Br)Br)c2[N+](=O)[O-] = -1
24. COc1ccc(Cl)cc1Nc1nc(C(F)(F)F)ccc1C(=O)N/N=C/c1cc(OC)c(OC)c(OC)c1 = 1
25. COc1cc2c(cc1NC(=O)C(F)(F)F)-c1ccc(NC(=O)C(F)(F)F)cc1C2 = -1
26. Cc1ccc(S(=O)(=O)N/N=C2\CCCc3ccccc32)cc1 = -1
27. O=C(O)Cc1ccc(O)c(O)c1 = -1
28. COc1ccc(C(=O)N/N=C/c2cc(C(F)(F)F)ccc2Cl)cc1 = -1
29. COc1ccc(/C=c2\sc3n(c2=O)C(c2cc(OC)c(OC)c(OC)c2)C=C(c2ccc(OC)c(OC)c2)N=3)cc1OC (configuration not stated) = -1
30. COc1ccc(/C=C2\CCCC3=C2NC(N)=NC3c2ccc(OC)c(OC)c2)cc1OC (configuration not stated) = -1
31. O=C(Nc1nc(-c2ccccc2)nc2c1sc(=S)n2-c1ccccc1)C(F)(F)F = -1
32. Cc1cc(Cl)ccc1Nc1nc(C(F)(F)F)ccc1C(=O)N/N=C/c1cccc(O)c1 = -1
33. CN1C(=O)C2(Nc3cc(Cl)ccc3S2)c2cc(Cl)ccc21 (configuration not stated) = -1
34. CCN(CC)CC(=O)N(CC)c1ccc(C)c(Cl)c1 = -1
35. Cc1c[nH]c(=O)n(Cc2nnc(CCC(=O)c3nc4ccccc4[nH]3)o2)c1=O = -1
36. CCCCCCCCCCCC[n+]1c(C)cc(N)c2ccccc21 = 1
37. CCNCC(=O)Nc1ccc(C(=O)OCC)cc1 = -1

Data origin: PubChem BioAssay (NCI)
